# System: HL-60(TB) leukemia
# assay.comment: NCI tumour cell line growth inhibition, 48 h
The following compounds are shown together with reported TGI values.
Express your answer in µM, writing the number without its unit.

Worked set:
CC/C=C\C[C@H](O)C/C=C1/C(=O)C=C[C@@H]1C/C=C\CCCCO: 6.88
O=C1c2c(Cl)c(Cl)c(Cl)c(Cl)c2C(=O)C2(Cl)CC=CCC12Cl (stereo not given): 5.04
C=C1c2nc3ccccc3n2C=C(c2ccc(Cl)cc2)N1c1ccc(OCCN2CCCCC2)cc1: 45
C=C1CC2(CCS(=O)(=O)c3ccccc32)OC1=O (stereo not given): 8.64
COc1cc(CCNC(=O)OC(C)(C)C)c2c(c1OC)SSSSS2: 13.4
CN(C)CCS(=O)(=O)Nc1cc(-c2ccc3ncc(C#N)c(Nc4ccc(F)c(Cl)c4)c3c2)cnc1Cl: 0.684
CCCCC1(O)CC2CC1C(C)C2(C)C (stereo not given): 64.6
COC(=O)c1oc2c(C(=O)/C=C/c3ccc(OC)cc3)c(OCCN3CCOCC3)ccc2c1C: 4.29

Exam item: What does the record list as TGI for `Cc1ccc(OCCOCCOCCOCCOCCOc2ccc(C)n(O)c2=S)c(=S)n1O` ?
Marked response: 0.638

Exam item: Similarly, `COc1ccc(OC)c(/C=C/c2ccnc3ccccc23)c1` ?
Marked response: 0.977
